# Tested on: HOP-62
# procedure details: NCI tumour cell line growth inhibition, 48 h
Active and inactive are the calls of the source. No stated cut-off is given here; in the data, active = GI50 up to about 1.1 µM and inactive = higher.
quantity kind: GI50

# example entries with known answers
O=C(c1ccccc1)c1ccc2[nH]c(-c3c(Cl)c(Cl)c(Cl)c(Cl)c3-c3nnc(-c4ccccc4)o3)nc2c1 ... 25.8 µM (inactive)
Cc1[nH]n(C(=N)N)c(=O)c1CCO ... > 100 µM (inactive)

The reported value for COC(=O)C1C=NNC1C(=O)OC (centres undefined) in terms of GI50 is > 100 µM (inactive)

The compound listed as O=C(O)CN1C(=O)OC(c2ccccc2)C1=O (centres undefined) has a reported GI50 of > 100 µM (inactive)

The reported GI50 of the compound COC(=O)C(NC(=O)CNC(=O)CSc1nnc(COc2ccc(Cl)cc2)n1-c1ccccc1)C(C)C (centres undefined) was 26.5 µM (inactive)

Per the record, NNC(=S)N/N=C(/C(=O)Nc1cc(Cl)ccc1Cl)C1C(=O)Nc2ccccc2[S+]1[O-] (centres undefined) has GI50 of > 100 µM (inactive)

The recorded GI50 for entry CC1(C)CC(=O)c2c(nc3ccc4ccccc4c3c2-c2ccc(NC(=O)CCCCC(=O)Nc3ccc(-c4c5c(nc6ccc7ccccc7c46)CC(C)(C)CC5=O)cc3)cc2)C1 equals > 100 µM (inactive)

The compound listed as O=S(=O)(c1ccccc1)N1CN2CN(C1)CN(S(=O)(=O)c1ccccc1)C2 shows GI50 equal to > 100 µM (inactive)

Reported GI50 of CN(/N=C/c1ccnc2ccccc12)c1ccc([N+](=O)[O-])cc1[N+](=O)[O-] : 30.3 µM (inactive)

* * *

# System: M14
# procedure details: NCI tumour cell line growth inhibition, 48 h
Active and inactive are the calls of the source. No stated cut-off is given here; in the data, active = GI50 up to about 1.1 µM and inactive = higher.
quantity kind: GI50

Here is how some compounds turned out for GI50.
COc1ccc(N(C(=O)OC(C)(C)C)[C@@H]2C(C)=C[C@H]([S@@+]([O-])c3ccc(C)cc3)[C@@H]3C(=O)N(C)C(=O)[C@@H]32)cc1 ... 32.2 µM (inactive)
CN(C)c1ccc(/C=C(\NC(=O)c2ccccc2)C(=O)Nc2ccccc2C(=O)NCc2ccccc2)cc1 ... 77.6 µM (inactive)
COc1cc(OC2OC(COC(=O)c3cc(O)c(O)c(O)c3)C(O)C(O)C2O)ccc1O (stereo not given) ... 90.8 µM (inactive)
BrCC[N+]12CCCN1CCC2 ... 11 µM (inactive)
C=C1CC(c2ccc(O)c(OC)c2)Oc2c(OC)cccc21 (stereo not given) ... 34 µM (inactive)
Cc1cc(C)nc(NC(=S)Nc2ccccc2Cl)c1 ... > 100 µM (inactive)
CC(C)NCC(O)c1ccc(O)c2ncccc12 (stereo not given) ... 42.4 µM (inactive)
Cc1cc2cc(Cl)ccc2nc1C(=O)c1ccccc1 ... > 100 µM (inactive)
CCCCCCC1CC(=O)C1(Cl)Cl (stereo not given) ... 26.7 µM (inactive)
C=C1C[C@]23CCC4C(C)(C)C(=O)CC[C@]4(C)C2C[C@H]1C(O)C3=O (stereo not given in full) ... > 75 µM (inactive)

Reported GI50 ( COC(=O)c1onc(-c2c(OC)cc(OC)cc2OC)c1C(=O)OC ) = > 100 µM (inactive)

The recorded GI50 for entry O=c1cc(N2CCOCC2)n2c(ccc3ccccc32)n1 equals > 100 µM (inactive)

GI50 recorded for this compound, CCOC(=N)CC(=O)Nc1ccc(Cl)cc1 , is > 100 µM (inactive)

Consider CCOC(=O)C1(Cc2ccc3ccccc3c2)CCCCC(=O)N1 (stereo not given) . Its measured GI50 is 39.3 µM (inactive)

Recorded result, CSc1nc(-c2ccccc2)nc(C(C#N)C#N)n1 , GI50: > 100 µM (inactive)

Reference source for all entries: ChEMBL document CHEMBL1201862
